# Test system: SNB-19 CNS
# test: NCI-60 one-dose screen, 48 h (100 = growth as untreated, 0 = no growth, -100 = all killed)
# study_conditions: 10 µM unless noted
The panel holds about 83,000 compounds, 20% with a hit somewhere; the sample as a whole holds those more often.
property_name: growth (%)
State the answer as a number, implicitly in %.

Example entries begin here.
Nc1nn2c(-c3cc4ccccc4oc3=O)ccnc2c1N=Nc1ccccc1 = 4.86
COc1ccc(N=Nc2c(N)nn3c(N)c(C#N)c(-c4ccc(C)cc4)nc23)cc1 = 89.5
N#Cc1ccc(C(=O)NNC(=O)CSc2nc3sc4c(c3c(=O)n2-c2ccc(Cl)cc2)CCCC4)cc1 = 51.5

query: # input compound: `N#Cc1cc(-c2ccc3ncnc(N4CCc5cc(F)c(Cl)cc54)c3c2)cnc1N` ; wanted: its growth
result: 57.9
